Just for reference, ChEMBL document CHEMBL4507326 is where these values come from.

Target: Mitogen-activated protein kinase kinase kinase 14 (Homo sapiens, UniProt Q99558)
Sequence (Q99558 whole entry): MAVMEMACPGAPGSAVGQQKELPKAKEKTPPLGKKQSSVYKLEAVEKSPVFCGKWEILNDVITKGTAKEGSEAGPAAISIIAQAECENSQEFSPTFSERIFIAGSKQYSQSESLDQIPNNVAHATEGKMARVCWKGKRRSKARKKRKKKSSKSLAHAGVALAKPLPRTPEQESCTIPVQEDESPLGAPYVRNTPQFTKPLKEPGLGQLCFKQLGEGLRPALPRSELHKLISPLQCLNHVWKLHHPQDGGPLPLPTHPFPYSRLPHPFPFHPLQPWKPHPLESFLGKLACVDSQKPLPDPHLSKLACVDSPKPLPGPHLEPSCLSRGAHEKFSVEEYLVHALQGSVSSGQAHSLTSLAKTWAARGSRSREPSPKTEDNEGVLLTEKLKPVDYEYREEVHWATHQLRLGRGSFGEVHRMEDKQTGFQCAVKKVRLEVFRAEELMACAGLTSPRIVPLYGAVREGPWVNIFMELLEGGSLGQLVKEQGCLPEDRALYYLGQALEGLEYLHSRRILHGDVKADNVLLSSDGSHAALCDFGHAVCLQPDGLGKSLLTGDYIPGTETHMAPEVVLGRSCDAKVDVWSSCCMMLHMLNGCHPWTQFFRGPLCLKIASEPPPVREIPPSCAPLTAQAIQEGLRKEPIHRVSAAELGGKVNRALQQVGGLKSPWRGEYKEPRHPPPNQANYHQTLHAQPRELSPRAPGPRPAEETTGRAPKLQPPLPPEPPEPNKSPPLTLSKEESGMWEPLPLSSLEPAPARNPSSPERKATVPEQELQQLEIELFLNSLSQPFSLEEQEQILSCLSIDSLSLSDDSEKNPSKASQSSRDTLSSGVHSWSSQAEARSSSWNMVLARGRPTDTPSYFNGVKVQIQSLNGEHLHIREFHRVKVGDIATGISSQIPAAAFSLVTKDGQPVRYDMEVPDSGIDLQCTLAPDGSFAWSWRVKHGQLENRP
Test: NIK(M314LGP1) Takeda global kinase panel
readout label: IC50
# include the unit after the value

Notebook: CN1C(=O)[C@@H](N2CCc3c(nn(Cc4ccccc4)c3Br)C2=O)COc2ccccc21 , IC50 read as 1000 nM

====

Target: Insulin-like growth factor 1 receptor (Homo sapiens, UniProt P08069)
Sequence (P08069 31-736 limits assumed): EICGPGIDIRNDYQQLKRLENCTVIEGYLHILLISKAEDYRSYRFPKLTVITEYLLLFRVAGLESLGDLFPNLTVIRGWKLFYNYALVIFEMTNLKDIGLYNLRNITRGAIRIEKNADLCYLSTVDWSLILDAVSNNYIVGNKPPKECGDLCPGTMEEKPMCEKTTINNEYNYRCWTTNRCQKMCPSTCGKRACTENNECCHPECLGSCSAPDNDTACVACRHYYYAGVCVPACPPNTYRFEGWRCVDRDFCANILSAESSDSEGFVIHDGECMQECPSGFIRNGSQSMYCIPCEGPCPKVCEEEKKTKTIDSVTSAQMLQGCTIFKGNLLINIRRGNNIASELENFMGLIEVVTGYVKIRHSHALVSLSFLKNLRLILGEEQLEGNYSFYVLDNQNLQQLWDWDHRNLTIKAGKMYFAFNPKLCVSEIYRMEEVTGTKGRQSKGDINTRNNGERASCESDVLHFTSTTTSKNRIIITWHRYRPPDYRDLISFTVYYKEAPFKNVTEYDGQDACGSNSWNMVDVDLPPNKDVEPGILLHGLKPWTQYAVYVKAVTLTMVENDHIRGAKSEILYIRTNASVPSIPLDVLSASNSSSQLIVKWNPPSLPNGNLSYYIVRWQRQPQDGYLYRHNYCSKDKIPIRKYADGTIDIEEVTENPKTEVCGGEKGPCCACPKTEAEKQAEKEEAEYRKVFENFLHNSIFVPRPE
Sequence (P08069 741-1367 limits assumed): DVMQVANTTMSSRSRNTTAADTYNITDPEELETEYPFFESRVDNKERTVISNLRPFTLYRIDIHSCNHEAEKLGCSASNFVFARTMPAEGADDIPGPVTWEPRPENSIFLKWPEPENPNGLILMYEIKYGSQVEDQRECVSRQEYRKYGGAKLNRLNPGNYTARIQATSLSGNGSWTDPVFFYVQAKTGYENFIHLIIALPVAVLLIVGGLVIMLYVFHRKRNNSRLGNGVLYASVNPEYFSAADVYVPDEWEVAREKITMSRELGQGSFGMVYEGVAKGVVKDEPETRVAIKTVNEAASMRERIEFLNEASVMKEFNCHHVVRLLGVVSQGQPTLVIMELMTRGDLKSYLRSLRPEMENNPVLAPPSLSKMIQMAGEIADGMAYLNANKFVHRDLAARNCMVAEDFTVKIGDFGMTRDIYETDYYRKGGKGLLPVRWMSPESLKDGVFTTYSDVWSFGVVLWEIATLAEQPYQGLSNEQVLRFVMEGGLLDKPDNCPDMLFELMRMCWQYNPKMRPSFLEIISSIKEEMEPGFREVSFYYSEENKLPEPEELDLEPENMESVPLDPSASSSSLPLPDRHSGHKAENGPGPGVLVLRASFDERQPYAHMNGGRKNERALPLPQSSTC
readout label: IC50 (µM)
Give the quantity in µM, number only.

Test item CN1C(=O)[C@@H](N2CCc3c(nn(Cc4ccccc4)c3Br)C2=O)COc2ccccc21 ; Insulin-like growth factor 1 receptor (Homo sapiens, UniProt P08069); reported IC50 was 1

====

Molecular target: Ribosomal protein S6 kinase alpha-5 (Homo sapiens, UniProt O75582)
readout label: IC50 (nM)
Give the quantity in nM, number only.

Test item CN1C(=O)[C@@H](N2CCc3c(nn(Cc4ccccc4)c3Br)C2=O)COc2ccccc21 ; Ribosomal protein S6 kinase alpha-5 (Homo sapiens, UniProt O75582); reported IC50 was 1000

====

Target: UniProtKB Q9Y463
Sequence (Q9Y463 whole entry): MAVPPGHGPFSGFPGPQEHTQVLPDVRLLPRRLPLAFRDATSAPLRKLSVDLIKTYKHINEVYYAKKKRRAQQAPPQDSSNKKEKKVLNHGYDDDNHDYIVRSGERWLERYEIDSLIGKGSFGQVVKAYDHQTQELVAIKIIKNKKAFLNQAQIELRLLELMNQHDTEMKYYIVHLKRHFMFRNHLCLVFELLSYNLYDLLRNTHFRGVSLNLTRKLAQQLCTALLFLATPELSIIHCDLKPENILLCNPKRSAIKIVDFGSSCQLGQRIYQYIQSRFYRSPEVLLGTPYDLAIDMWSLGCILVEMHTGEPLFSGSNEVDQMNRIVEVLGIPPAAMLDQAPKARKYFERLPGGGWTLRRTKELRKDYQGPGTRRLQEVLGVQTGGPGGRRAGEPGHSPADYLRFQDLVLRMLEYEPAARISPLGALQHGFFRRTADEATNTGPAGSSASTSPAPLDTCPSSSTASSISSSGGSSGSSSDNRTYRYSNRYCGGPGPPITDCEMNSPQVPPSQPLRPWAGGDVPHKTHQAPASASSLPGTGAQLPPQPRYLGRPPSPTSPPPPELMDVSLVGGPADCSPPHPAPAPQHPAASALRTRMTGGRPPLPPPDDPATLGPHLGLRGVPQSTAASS
Test: DYRK1B(DY1BLHY1) Takeda global kinase panel
readout label: IC50
# include the unit after the value

Test item CN1C(=O)[C@@H](N2CCc3c(nn(Cc4ccccc4)c3Br)C2=O)COc2ccccc21 ; UniProtKB Q9Y463; reported IC50 was 1000 nM

====

Target: Dual specificity mitogen-activated protein kinase kinase 6 (Homo sapiens)
Assay: MKK6 [MAP2K6(M2K6LGF1)] Takeda global kinase panel
readout label: IC50 (nM)
Give the quantity in nM, number only.

Notebook: CN1C(=O)[C@@H](N2CCc3c(nn(Cc4ccccc4)c3Br)C2=O)COc2ccccc21 , IC50 read as 1000

====

Target: UniProtKB Q9UQ88
Sequence (Q9UQ88 whole entry): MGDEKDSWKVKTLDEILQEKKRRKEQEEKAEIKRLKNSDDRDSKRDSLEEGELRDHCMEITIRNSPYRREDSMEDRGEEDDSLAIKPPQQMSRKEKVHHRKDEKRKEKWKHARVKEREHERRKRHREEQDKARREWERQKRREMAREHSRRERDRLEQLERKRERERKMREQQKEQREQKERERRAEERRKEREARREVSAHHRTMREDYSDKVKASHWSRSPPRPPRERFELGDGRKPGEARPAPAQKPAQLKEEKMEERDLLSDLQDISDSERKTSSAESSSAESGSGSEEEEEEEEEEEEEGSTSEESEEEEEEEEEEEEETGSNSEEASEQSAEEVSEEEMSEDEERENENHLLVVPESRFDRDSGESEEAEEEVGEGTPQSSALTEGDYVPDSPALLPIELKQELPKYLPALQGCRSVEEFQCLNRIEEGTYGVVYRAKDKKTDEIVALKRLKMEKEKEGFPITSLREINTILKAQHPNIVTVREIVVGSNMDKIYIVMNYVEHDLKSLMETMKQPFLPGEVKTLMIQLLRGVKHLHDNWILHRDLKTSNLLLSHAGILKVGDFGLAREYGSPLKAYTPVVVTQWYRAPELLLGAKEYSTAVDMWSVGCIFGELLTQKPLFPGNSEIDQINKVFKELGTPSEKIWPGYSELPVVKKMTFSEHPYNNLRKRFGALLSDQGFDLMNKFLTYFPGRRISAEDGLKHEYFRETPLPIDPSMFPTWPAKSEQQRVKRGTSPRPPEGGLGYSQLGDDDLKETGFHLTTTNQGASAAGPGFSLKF
Assay: CDK11A(C11ALGS1) Takeda global kinase panel
readout label: pIC50
Entry type: numeric. Quantity: pIC50, the -log10 of concentration in molar units.

Notebook: CN1C(=O)[C@@H](N2CCc3c(nn(Cc4ccccc4)c3Br)C2=O)COc2ccccc21 , pIC50 read as 6.00

====

Target: Serine/threonine-protein kinase 32A (Homo sapiens, UniProt Q8WU08)
readout label: pIC50
Entry type: numeric. Quantity: pIC50, the -log10 of concentration in molar units.

Notebook: CN1C(=O)[C@@H](N2CCc3c(nn(Cc4ccccc4)c3Br)C2=O)COc2ccccc21 [TP-030-2] , pIC50 read as 6.00

====

Target: Calcium/calmodulin-dependent protein kinase type IV (Homo sapiens, UniProt Q16566)
Sequence (Q16566 whole entry): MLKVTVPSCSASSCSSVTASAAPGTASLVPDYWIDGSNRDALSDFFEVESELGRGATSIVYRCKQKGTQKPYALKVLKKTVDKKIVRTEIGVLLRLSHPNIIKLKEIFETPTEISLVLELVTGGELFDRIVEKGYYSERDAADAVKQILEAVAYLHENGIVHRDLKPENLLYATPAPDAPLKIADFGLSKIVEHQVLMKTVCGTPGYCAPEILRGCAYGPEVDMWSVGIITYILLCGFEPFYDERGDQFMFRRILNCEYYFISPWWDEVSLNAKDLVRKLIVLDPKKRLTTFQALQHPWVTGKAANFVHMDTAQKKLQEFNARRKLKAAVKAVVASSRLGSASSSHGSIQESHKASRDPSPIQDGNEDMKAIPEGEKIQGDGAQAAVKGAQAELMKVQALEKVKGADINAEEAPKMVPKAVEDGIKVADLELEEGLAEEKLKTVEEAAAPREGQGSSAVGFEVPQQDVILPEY
Test: CaMK4(CAM4LGY1) Takeda global kinase panel
readout label: IC50

Notebook: CN1C(=O)[C@@H](N2CCc3c(nn(Cc4ccccc4)c3Br)C2=O)COc2ccccc21 , IC50 read as 1000 nM

====

Target: Serine/threonine-protein kinase TAO2 (Homo sapiens, UniProt Q9UL54)
Sequence (Q9UL54 whole entry): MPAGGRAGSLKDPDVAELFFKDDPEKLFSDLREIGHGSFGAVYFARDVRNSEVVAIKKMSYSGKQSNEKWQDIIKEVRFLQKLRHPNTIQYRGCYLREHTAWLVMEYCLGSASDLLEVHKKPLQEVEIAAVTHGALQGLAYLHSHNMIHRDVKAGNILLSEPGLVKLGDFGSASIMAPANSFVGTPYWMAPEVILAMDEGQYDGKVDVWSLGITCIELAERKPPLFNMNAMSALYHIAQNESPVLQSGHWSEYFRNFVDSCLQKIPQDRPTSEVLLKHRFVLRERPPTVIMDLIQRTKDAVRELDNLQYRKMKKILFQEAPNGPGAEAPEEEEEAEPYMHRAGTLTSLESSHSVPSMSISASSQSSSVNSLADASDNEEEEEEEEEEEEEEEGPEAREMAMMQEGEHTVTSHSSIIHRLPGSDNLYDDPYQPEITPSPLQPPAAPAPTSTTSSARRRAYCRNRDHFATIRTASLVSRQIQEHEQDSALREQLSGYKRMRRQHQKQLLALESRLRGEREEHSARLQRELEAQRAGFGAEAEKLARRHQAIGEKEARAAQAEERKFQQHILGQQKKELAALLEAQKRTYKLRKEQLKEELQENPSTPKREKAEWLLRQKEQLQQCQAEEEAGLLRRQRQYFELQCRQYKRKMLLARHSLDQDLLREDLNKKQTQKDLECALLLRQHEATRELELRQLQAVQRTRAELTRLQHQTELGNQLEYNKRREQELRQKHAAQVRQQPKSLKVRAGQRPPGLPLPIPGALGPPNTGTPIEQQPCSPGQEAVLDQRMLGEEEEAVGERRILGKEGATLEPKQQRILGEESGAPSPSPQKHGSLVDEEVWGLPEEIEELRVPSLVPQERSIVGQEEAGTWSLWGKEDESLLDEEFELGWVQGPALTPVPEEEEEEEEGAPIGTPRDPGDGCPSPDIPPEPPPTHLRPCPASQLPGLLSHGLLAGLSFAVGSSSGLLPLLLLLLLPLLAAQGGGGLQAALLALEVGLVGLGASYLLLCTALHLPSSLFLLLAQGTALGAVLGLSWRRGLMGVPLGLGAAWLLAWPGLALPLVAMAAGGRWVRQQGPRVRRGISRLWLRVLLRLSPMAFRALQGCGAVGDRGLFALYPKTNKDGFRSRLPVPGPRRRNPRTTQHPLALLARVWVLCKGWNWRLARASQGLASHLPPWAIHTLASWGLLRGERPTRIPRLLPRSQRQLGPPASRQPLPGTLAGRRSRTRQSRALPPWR
readout label: pIC50
Entry type: numeric. Quantity: pIC50, the -log10 of concentration in molar units.

Test item CN1C(=O)[C@@H](N2CCc3c(nn(Cc4ccccc4)c3Br)C2=O)COc2ccccc21 [TP-030-2] ; Serine/threonine-protein kinase TAO2 (Homo sapiens, UniProt Q9UL54); reported pIC50 was 6.00

====

Target: Serine/threonine-protein kinase 26 (Homo sapiens, UniProt Q9P289)
Sequence (Q9P289 whole entry): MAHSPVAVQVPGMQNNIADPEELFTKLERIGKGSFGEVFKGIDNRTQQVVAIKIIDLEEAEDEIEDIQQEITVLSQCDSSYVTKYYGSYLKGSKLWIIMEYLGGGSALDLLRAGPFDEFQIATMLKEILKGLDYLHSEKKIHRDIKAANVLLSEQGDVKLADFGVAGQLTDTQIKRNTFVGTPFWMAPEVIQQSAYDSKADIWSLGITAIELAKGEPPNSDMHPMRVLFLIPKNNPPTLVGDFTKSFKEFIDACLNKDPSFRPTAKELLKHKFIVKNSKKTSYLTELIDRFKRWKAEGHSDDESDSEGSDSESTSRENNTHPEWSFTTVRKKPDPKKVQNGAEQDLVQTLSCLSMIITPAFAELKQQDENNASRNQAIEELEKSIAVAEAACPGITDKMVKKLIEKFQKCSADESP
readout label: pIC50
Entry type: numeric. Quantity: pIC50, the -log10 of concentration in molar units.

Test item CN1C(=O)[C@@H](N2CCc3c(nn(Cc4ccccc4)c3Br)C2=O)COc2ccccc21 ; Serine/threonine-protein kinase 26 (Homo sapiens, UniProt Q9P289); reported pIC50 was 6.00

====

Biological target: UniProtKB P57058
Sequence (P57058 whole entry): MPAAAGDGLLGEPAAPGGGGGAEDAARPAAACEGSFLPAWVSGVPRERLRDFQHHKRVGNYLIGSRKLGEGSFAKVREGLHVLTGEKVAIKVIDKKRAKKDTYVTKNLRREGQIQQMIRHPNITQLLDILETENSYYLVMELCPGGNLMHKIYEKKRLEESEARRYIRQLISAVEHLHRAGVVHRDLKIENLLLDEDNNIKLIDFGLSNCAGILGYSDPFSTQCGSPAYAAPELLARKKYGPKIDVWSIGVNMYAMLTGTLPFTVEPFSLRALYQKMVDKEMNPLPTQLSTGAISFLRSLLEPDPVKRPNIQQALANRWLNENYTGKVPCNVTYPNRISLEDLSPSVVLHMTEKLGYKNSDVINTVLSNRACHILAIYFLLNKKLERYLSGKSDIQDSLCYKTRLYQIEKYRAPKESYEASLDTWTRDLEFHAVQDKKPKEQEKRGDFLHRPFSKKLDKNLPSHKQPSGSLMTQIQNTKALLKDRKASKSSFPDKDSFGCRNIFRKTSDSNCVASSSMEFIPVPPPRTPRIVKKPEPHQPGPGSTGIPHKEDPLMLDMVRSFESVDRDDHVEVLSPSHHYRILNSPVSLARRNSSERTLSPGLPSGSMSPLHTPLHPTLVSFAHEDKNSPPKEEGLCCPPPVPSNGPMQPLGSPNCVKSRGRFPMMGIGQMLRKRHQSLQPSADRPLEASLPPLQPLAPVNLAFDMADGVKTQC
readout label: pIC50
Entry type: numeric. Quantity: pIC50, the -log10 of concentration in molar units.

Notebook: CN1C(=O)[C@@H](N2CCc3c(nn(Cc4ccccc4)c3Br)C2=O)COc2ccccc21 , pIC50 read as 6.00

====

Target: Serine/threonine-protein kinase ULK1 (Homo sapiens)
Sequence (O75385 whole entry): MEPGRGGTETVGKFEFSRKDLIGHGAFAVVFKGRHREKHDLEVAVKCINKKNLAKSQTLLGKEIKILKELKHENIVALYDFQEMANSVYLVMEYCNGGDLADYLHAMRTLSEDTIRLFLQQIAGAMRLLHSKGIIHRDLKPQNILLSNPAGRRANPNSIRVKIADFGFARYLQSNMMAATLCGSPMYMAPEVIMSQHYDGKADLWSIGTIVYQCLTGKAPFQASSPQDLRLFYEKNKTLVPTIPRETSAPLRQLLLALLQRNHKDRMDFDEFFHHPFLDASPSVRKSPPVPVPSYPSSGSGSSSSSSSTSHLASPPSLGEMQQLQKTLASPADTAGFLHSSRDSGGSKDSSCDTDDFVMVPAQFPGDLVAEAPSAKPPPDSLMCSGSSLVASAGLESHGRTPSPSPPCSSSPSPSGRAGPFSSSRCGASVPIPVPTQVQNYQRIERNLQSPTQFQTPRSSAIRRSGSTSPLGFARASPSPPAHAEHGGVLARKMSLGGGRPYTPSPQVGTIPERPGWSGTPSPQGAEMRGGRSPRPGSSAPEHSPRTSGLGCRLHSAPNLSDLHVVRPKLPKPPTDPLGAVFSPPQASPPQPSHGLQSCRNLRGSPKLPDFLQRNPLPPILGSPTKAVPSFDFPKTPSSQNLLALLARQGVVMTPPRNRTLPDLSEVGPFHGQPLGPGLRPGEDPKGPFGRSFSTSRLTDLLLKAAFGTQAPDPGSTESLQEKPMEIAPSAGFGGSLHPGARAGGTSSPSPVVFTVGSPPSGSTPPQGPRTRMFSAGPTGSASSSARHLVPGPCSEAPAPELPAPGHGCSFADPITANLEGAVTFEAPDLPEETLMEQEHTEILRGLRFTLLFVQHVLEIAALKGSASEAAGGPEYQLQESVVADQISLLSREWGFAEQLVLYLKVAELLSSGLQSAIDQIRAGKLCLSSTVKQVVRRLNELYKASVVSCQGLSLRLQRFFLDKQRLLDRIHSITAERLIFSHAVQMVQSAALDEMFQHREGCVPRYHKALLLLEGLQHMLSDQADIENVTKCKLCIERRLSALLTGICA
readout label: pIC50
Entry type: numeric. Quantity: pIC50, the -log10 of concentration in molar units.

Notebook: CN1C(=O)[C@@H](N2CCc3c(nn(Cc4ccccc4)c3Br)C2=O)COc2ccccc21 [TP-030-2] , pIC50 read as 6.00
